assay: Solubility in serum (unknown origin); assay type: ADME

>  <MOLECULE>
C=C1C(=O)O[C@@H]2C3O[C@]3(C)CC/C=C(\C)CC[C@@H]12 (stereo partly specified)

>  <solubility / µM>
169

$$$$

These entries and their values trace back to ChEMBL document CHEMBL3352597.
